Overview of reported viability, T/C across a group of compounds:
# System: 931267-113-T-J1-PDC multicell spheroid viability;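 further: viability read 7 days after compound addition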
# test.summary: Anticancer human tumor 931267-113-T-J1-PDC patient-derived colon adenocarcinoma cell line growth inhibition [PI3K]
# condition.details: second compound 1 µM; first compound 3.16 µM; stronger effect = lower value
quantity.name: viability, T/C (%)

compound	obs.value
CC(C)NCC(C(=O)N1CCN(c2ncnc3c2C(C)CC3O)CC1)c1ccc(Cl)cc1 (stereo not given) + COc1c(OCCCN2CCOCC2)ccc2c3n(c(=NC(=O)c4cnc(N)nc4)nc12)CCN3	42
Cn1ncc(Cl)c1-c1cc(C(=O)NC(CN)Cc2cccc(F)c2)sc1Cl (stereo not given) + CC(Nc1ncnc2nc[nH]c12)c1cc2cccc(Cl)c2c(=O)n1-c1ccccc1	80.6
CC(C)NCC(C(=O)N1CCN(c2ncnc3c2C(C)CC3O)CC1)c1ccc(Cl)cc1 (stereo not given) + CC(Nc1ncnc2nc[nH]c12)c1cc2cccc(Cl)c2c(=O)n1-c1ccccc1	99.1
CC1(C)CCC(Nc2ncc(C(F)(F)F)c(-c3c[nH]c4c(P(C)(C)=O)c(C#N)ccc34)n2)CN1 (stereo not given) + COc1c(OCCCN2CCOCC2)ccc2c3n(c(=NC(=O)c4cnc(N)nc4)nc12)CCN3	30.5
CC1(C)CCC(CN2CCN(c3ccc(C(=O)NS(=O)(=O)c4ccc(NCC5CCOCC5)c([N+](=O)[O-])c4)c(Oc4cnc5[nH]ccc5c4)c3)CC2)=C(c2ccc(Cl)cc2)C1 + CC(Nc1ncnc2nc[nH]c12)c1cc2cccc(Cl)c2c(=O)n1-c1ccccc1	92.4
